biological target: FGFR-1 (Mus musculus); assay: Binding of 125I-bFGF to CHO cells expressing FGFR-1; conditions: IC50, bFGF binding in the cellular receptor system, FIG. 1C
Sequence (P16092 22-822): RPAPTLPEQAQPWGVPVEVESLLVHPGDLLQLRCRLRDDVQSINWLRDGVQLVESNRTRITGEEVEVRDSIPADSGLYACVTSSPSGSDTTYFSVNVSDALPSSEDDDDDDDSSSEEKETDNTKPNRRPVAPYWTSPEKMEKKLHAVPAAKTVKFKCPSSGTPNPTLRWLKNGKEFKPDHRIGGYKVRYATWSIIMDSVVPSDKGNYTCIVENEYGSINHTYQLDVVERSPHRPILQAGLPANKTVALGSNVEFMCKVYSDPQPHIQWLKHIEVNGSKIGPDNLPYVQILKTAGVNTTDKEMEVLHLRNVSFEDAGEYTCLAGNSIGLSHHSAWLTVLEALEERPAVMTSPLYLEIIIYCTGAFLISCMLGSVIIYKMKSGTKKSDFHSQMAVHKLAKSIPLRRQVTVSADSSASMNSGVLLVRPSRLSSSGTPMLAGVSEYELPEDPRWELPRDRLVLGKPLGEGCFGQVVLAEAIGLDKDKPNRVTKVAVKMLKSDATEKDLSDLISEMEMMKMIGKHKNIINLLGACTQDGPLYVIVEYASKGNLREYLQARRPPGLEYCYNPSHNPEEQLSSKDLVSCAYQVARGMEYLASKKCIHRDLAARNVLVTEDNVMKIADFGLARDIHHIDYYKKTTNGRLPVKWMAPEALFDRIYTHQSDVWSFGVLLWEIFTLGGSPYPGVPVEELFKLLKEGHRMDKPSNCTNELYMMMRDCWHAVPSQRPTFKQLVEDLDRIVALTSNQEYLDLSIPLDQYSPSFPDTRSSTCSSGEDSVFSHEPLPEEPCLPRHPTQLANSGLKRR
pIC50: −log10 of the molar value.
reported.metric: pIC50

// query Give recorded pIC50 with FGFR-1 (Mus musculus) for the following molecule: C[n+]1ccc(-c2c3nc(c(-c4cc[n+](C)cc4)c4ccc([nH]4)c(-c4cc[n+](C)cc4)c4nc(c(-c5cc[n+](C)cc5)c5ccc2[nH]5)C=C4)C=C3)cc1 [Compound P1]
// result ~5.60

###

The following compounds are listed with their measured pIC50 values.
molecular target: soluble FGFR-1 (FRAP) (Mus musculus, UniProt P16092); assay: Binding of 125I-bFGF to immobilized soluble FGFR-1 (FRAP), cell-free; details: Soluble receptor binding (IC50), binding of FGF to FGFR; Methods section (iii)
Sequence (P16092 22-376 limits assumed): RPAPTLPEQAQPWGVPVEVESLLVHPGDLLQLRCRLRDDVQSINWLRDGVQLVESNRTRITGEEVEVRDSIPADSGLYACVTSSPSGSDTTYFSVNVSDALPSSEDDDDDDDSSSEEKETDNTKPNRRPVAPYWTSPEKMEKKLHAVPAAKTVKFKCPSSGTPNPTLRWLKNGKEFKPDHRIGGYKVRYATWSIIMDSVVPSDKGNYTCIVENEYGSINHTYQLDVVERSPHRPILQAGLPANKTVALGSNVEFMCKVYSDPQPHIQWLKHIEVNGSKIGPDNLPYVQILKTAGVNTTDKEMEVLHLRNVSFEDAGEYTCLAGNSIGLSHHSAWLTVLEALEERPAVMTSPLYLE
// pIC50: -log10(molar conc.)

// query Give recorded pIC50 with soluble FGFR-1 (FRAP) (Mus musculus, UniProt P16092) for the following compound: C[n+]1ccc(-c2c3nc(c(-c4cc[n+](C)cc4)c4ccc([nH]4)c(-c4cc[n+](C)cc4)c4nc(c(-c5cc[n+](C)cc5)c5ccc2[nH]5)C=C4)C=C3)cc1 [Compound P8]
// result 6.02

// query Give recorded pIC50 with soluble FGFR-1 (FRAP) (Mus musculus, UniProt P16092) for the following compound: C[n+]1ccc(-c2c3nc(c(-c4cc[n+](C)cc4)c4ccc([nH]4)c(-c4cc[n+](C)cc4)c4nc(c(-c5cc[n+](C)cc5)c5ccc2[nH]5)C=C4)C=C3)cc1 [Compound P1]
// result 6.12
